Molecular target: APJ Receptor (Homo sapiens)
Test: APJ cAMP assay: inhibition of forskolin-stimulated cAMP, enzyme fragment complementation, in CHO-K1 cells stably expressing the APJ Receptor
Conditions: CHO-K1 cell line (DiscoverX) stably expressing APJ Receptor; EC80 forskolin; 30 minutes at 37° C.; read-out: APJ cAMP EC50 Potency range
For each of the compounds below, state its EC50.

Response field EC50 (APJ Receptor (Homo sapiens)) for item COc1cccc(OC)c1-n1c(C(=O)NS(=O)(=O)Cc2ccccc2)nnc1-c1ccn(C)n1 [Example 4] : 1 to 100 nM

Value (EC50, APJ Receptor (Homo sapiens)) for record CCOc1cccc(-c2nnc(C(=O)NS(=O)(=O)Cc3ncccc3F)n2-c2c(OC)cccc2OC)n1 [Example 52] = < 1 nM

Summary: CCOc1cccc(-c2nnc(C(=O)NS(=O)(=O)Cc3cccnc3)n2-c2c(OC)cccc2OC)n1 [Example 56] , APJ Receptor (Homo sapiens), EC50 = < 1 nM

# CCOc1cccc(-c2nnc(C(=O)NS(=O)(=O)CCc3ccccn3)n2-c2c(OC)cccc2OC)n1 [Example 51] with APJ Receptor (Homo sapiens): EC50 is < 1 nM

EC50 of COc1cccc(OC)c1-n1c(C(=O)NS(=O)(=O)Cc2ncn(C)n2)nnc1-c1ccc(C)o1 [Example 55] , assay on APJ Receptor (Homo sapiens), is < 1 nM

Entry CCOc1cccc(-c2nnc(C(=O)NS(=O)(=O)[C@H]3CCc4ccccc4C3)n2-c2c(OC)cccc2OC)n1 (single isomer, unassigned) [Example 47] ; assay system APJ Receptor (Homo sapiens); EC50 recorded at < 1 nM

Case COc1cccc(-c2nnc(C(=O)NS(=O)(=O)Cc3ncc(Cl)cn3)n2-c2c(OC)cccc2OC)n1 [Example 29] , APJ Receptor (Homo sapiens), EC50 recorded as < 1 nM

Short answer on APJ Receptor (Homo sapiens) for CCOc1cccc(-c2nnc(C(=O)NS(=O)(=O)Cc3ncc(Cl)cn3)n2-c2c(OC)cccc2OC)n1 [Example 43] , EC50: < 1 nM

Summary line: COc1cccc(OC)c1-n1c(C(=O)NS(=O)(=O)Cc2ncccn2)nnc1-c1ccc(C)o1 [Example 17] , APJ Receptor (Homo sapiens), reported EC50 = < 1 nM

Simply: CCn1ccc(-c2nnc(C(=O)NS(=O)(=O)Cc3ccccc3)n2-c2c(OC)cccc2OC)n1 [Example 5] , APJ Receptor (Homo sapiens), EC50 = 1 to 100 nM

COc1cccc(-c2nnc(C(=O)NS(=O)(=O)[C@H](C)c3ccccc3)n2-c2c(OC)cccc2OC)n1 (single isomer, unassigned) [Example 33] tested on APJ Receptor (Homo sapiens) gave EC50: 1 to 100 nM

# COc1cccc(OC)c1-n1c(C(=O)NS(=O)(=O)Cc2ncccn2)nnc1-c1cccc(OC(F)(F)F)n1 [Example 58] with APJ Receptor (Homo sapiens): EC50 is 1 to 100 nM

Result for CCOc1cccc(-c2nnc(C(=O)NS(=O)(=O)CCc3ccncc3)n2-c2c(OC)cccc2OC)n1 [Example 49] , tested on APJ Receptor (Homo sapiens), EC50: < 1 nM

CCOc1cccc(-c2nnc(C(=O)NS(=O)(=O)[C@H](C)c3ccccc3)n2-c2c(OC)cccc2OC)n1 (single isomer, unassigned) [Example 40] on APJ Receptor (Homo sapiens) gives EC50 = < 1 nM

====

Target: APJ Receptor (Homo sapiens, UniProt P35414)
Sequence (P35414 whole entry, the tested form may be a part): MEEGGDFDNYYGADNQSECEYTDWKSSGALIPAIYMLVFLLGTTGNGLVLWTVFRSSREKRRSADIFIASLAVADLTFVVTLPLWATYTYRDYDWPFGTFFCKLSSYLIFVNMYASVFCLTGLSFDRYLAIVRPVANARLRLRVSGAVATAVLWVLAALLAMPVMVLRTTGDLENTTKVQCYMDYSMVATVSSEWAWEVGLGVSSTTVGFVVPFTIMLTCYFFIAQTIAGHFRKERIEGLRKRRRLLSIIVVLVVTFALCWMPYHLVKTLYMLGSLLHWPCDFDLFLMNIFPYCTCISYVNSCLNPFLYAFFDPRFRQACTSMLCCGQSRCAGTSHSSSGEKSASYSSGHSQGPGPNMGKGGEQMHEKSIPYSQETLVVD
Test: APJ cAMP assay: inhibition of forskolin-stimulated cAMP, enzyme fragment complementation, in CHO-K1 cells stably expressing the APJ Receptor
Details: CHO-K1 cell line (DiscoverX) stably expressing APJ Receptor; EC80 forskolin; 30 minutes at 37° C.; read-out: APJ cAMP EC50 Potency range
experimental endpoint: EC50

Consider CCOc1cccc(-c2nnc(C(=O)NS(=O)(=O)c3ccccc3)n2-c2c(OC)cccc2OC)n1 . Its measured EC50 is < 1 nM

Measured EC50 of COc1cccc(-c2nnc(C(=O)NS(=O)(=O)Cc3ccc(F)cc3)n2-c2c(OC)cccc2OC)n1 : < 1 nM

The molecule listed as COc1cccc(OC)c1-n1c(C(=O)NS(=O)(=O)Cc2ncccn2)nnc1-c1cccc(OC(F)F)n1 shows EC50 equal to 1 to 100 nM

Quick note, EC50 for COc1cccc(-c2nnc(C(=O)NS(=O)(=O)Cc3cccc(F)c3)n2-c2c(OC)cccc2OC)n1 landed at 1 to 100 nM

Value of measured EC50 for the entry COc1cccc(-c2nnc(C(=O)NS(=O)(=O)[C@@H](C)c3ccccc3)n2-c2c(OC)cccc2OC)n1 (single isomer, unassigned) : 1 to 100 nM

Record CCOc1cccc(-c2nnc(C(=O)NS(=O)(=O)CCc3cccnc3)n2-c2c(OC)cccc2OC)n1 . Reported EC50: < 1 nM

Form field EC50, entry COc1cccc(-c2nnc(C(=O)NS(=O)(=O)Cc3ccccc3)n2-c2c(F)cccc2F)n1 : 100 to 10000 nM

====

Provide the recorded pEC50 for the entries that follow.
Target: APJ Receptor (Homo sapiens, UniProt P35414)
Test: APJ cAMP assay: inhibition of forskolin-stimulated cAMP, enzyme fragment complementation, in CHO-K1 cells stably expressing the APJ Receptor
Conditions: CHO-K1 cell line (DiscoverX) stably expressing APJ Receptor; EC80 forskolin; 30 minutes at 37° C.; read-out: APJ cAMP EC50 Potency range
Description: Activation of APJ receptor is known to inhibit forskolin-stimulated cyclic AMP (cAMP) production in cells in a pertussis toxin-sensitive manner which indicates primary coupling to the GαI subunit of the G protein heterotrimeric complex. […] Compound activity was analyzed using CBIS data analysis suite (ChemInnovation, CA). […] The biological activity of the exemplified compounds of this invention determined by the assay described above is shown in Table 1. […]
pEC50: −log10 of the molar value.

Notebook: COc1cccc(OC)c1-n1c(C(=O)NS(=O)(=O)Cc2ncccn2)nnc1-c1cccc(OC2CC2)n1 [Example 20] , pEC50 read as > 9.00

So for COc1ccc(Cn2nc(C3CC3)nc2-c2nnc(C(=O)NS(=O)(=O)Cc3ccccc3)n2-c2c(OC)cccc2OC)cc1 [Example 64] , the logged pEC50 turned out to be 5.00 to 7.00

Sure, the documented pEC50 for COc1cccc(OC)c1-n1c(C(=O)NS(=O)(=O)Cc2ccccc2)nnc1-c1cc(C2CC2)no1 [Example 11] is 5.00 to 7.00

The compound listed as COc1cccc(OC)c1-n1c(C(=O)NS(=O)(=O)Cc2ccccc2)nnc1-c1ccc(C)cn1 [Example 15] has a reported pEC50 of 7.00 to 9.00

pEC50 in this record for COc1cccc(-c2nnc(C(=O)NS(=O)(=O)CC3CC3)n2-c2c(OC)cccc2OC)n1 [Example 35] : 7.00 to 9.00

# pEC50 of COc1cccc(OC)c1-n1c(C(=O)NS(=O)(=O)Cc2ccccc2)nnc1-c1ncc(C)c(OC)n1 [Example 12] = 5.00 to 7.00

So, COc1cccc(-c2nnc(C(=O)NS(=O)(=O)Cc3ccccn3)n2-c2c(OC)cccc2OC)n1 [Example 28] ? Its pEC50 was > 9.00

====

Please go through the items and note down their pEC50.
Target: APJ Receptor (Homo sapiens)
Experiment: APJ cAMP assay: inhibition of forskolin-stimulated cAMP, enzyme fragment complementation, in CHO-K1 cells stably expressing the APJ Receptor
Conditions: CHO-K1 cell line (DiscoverX) stably expressing APJ Receptor; EC80 forskolin; 30 minutes at 37° C.; read-out: APJ cAMP EC50 Potency range
pEC50: −log10 of the molar value.

pEC50 of COc1cccc(-c2nnc(C(=O)NS(=O)(=O)Cc3ccccc3)n2-c2c(OC)cccc2C(F)(F)F)n1 , assay on APJ Receptor (Homo sapiens), is 7.00 to 9.00

# value of pEC50, APJ Receptor (Homo sapiens), item COc1cccc(-c2nnc(C(=O)NS(=O)(=O)Cc3ccccc3)n2-c2c(Cl)cccc2Cl)n1 = 5.00 to 7.00

Value (pEC50, APJ Receptor (Homo sapiens)) for record COc1cccc(OC)c1-n1c(C(=O)NS(=O)(=O)Cc2ccccc2)nnc1-c1ccc(C)o1 = 7.00 to 9.00

The molecule CCOc1cccc(-c2nnc(C(=O)NS(=O)(=O)[C@@H]3CCc4ccccc4C3)n2-c2c(OC)cccc2OC)n1 (single isomer, unassigned) , when measured on APJ Receptor (Homo sapiens), yielded pEC50 of > 9.00

Observed pEC50 on APJ Receptor (Homo sapiens), entry COc1cccc(OC)c1-n1c(C(=O)NS(=O)(=O)Cc2ncccn2)nnc1-c1cncc(C)c1 , equals 5.00 to 7.00

Record COc1cccc(OC)c1-n1c(C(=O)NS(=O)(=O)Cc2ccccc2)nnc1-c1cccc(OC(F)F)n1 has APJ Receptor (Homo sapiens) pEC50 equal to 7.00 to 9.00
